Origin of measurements: ChEMBL document CHEMBL1961873

TARGET OF ASSAY: Interleukin-1 receptor-associated kinase 4 (Homo sapiens) (UniProt Q9NWZ3);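 further: reported figure is the mean inhibition of IRAK4 activity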
Sequence (whole entry): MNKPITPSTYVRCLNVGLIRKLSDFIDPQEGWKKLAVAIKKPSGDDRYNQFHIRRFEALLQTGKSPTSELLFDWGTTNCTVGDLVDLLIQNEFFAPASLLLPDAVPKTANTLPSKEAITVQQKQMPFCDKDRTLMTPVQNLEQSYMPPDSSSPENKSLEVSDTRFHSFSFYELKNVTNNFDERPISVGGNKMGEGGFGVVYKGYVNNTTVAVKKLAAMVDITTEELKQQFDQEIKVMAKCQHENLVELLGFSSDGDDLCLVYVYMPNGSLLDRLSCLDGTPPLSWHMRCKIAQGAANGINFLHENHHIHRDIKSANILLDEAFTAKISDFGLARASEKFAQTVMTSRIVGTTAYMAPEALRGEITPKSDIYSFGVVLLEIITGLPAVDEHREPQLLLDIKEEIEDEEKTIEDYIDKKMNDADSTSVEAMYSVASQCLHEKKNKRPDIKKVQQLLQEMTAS
ASSAY CONTEXT: at 0.1 µM
QUANTITY NAME: inhibition (%)
Respond numerically; units are % and should not be typed.

Report inhibition for `CNC(=O)c1sc(-n2cnc3cc(OC)c(OC)cc32)cc1OCc1ccccc1C(F)(F)F` please.
2.12

Consider the compound shown here: `Cn1c(-c2nonc2N)nc2cnccc21` What is its recorded inhibition?
3.47

Item under review: `CNC(=O)c1cncc(/C=C/c2ccccc2C)c1` . Reported inhibition?
-0.44

Request the reported inhibition associated with `CS(=O)(=O)CCNCc1ccoc1-c1ccc2ncnc(Nc3ccc(OCc4ccccc4)cc3)c2c1`
0.62

Look at this compound and give its reported inhibition. `COc1cccc(-n2ncc3c(N/N=C/c4ccc(C(=O)NCCN(C)C)cc4)ncnc32)c1`
-3.06

Recorded inhibition of `CCCNc1cccc(-n2ncc3c(N/N=C/c4ccncc4)ncnc32)c1` , please.
2.03

Fill in the blank: the reported inhibition of `CS(=O)(=O)CCNCc1ccc(-c2ccc3ncnc(Nc4ccc(OCc5cccc(C(F)(F)F)c5)cc4)c3c2)o1` is ____.
2.1

// query inhibition value for entry `COC(=O)Nc1nc2ccc(Oc3ccc(NC(=O)Nc4cc(C(F)(F)F)ccc4F)cc3)cc2s1`
1.94

Requested read-out: inhibition. Entry: `CCS(=O)(=O)c1ccc(OC)c(Nc2ncc(-c3cccc(F)c3)o2)c1`
2.36

Tell me the measured inhibition of CC1=C(C(=O)Nc2ccc3[nH]ncc3c2)C(c2ccc(F)cc2)N=C(c2ccc(C(F)(F)F)nc2)N1 (stereo not given) , please.
-2.11
